# assayed system: hydroxymethyldihydropteridine pyrophosphokinase (HMPPS) (Escherichia coli)
# Sequence (P26281 whole entry): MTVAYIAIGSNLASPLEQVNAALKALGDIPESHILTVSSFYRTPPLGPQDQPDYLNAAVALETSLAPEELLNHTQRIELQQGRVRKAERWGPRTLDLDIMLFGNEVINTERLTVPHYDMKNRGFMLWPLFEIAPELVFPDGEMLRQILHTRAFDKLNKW
readout: IC50 (µM)

INSERT INTO assay_data (structure_smiles, display_unit, value_observed) VALUES
  ('CC1(C)Nc2nc(N)nc(O)c2N=C1COc1ccccc1', 'µM', 17);
